# Test system: Liver
# Protocol Notes: Biodistribution in ddY mouse liver at 0.2 to 0.3 uCi, iv after 2 mins
# Type: ADME, organism-based
# Assay Conditions: in vivo
Where Drug uptake equals or exceeds 8 % ID/g, the correct label is satisfied; where it does not, the label is not satisfied.

Please indicate if the recorded Drug uptake for CN(C)c1ccc(/C=C/C(=O)c2ccc([125I])cc2)cc1 meets or exceeds 8 % ID/g.
satisfied

Please indicate if the recorded Drug uptake for CNc1ccc(/C=C/C(=O)c2ccc([125I])cc2)cc1 meets or exceeds 8 % ID/g.
not satisfied

Please indicate if the recorded Drug uptake for COc1ccc(/C=C/C(=O)c2ccc([125I])cc2)cc1 meets or exceeds 8 % ID/g.
not satisfied

Please indicate if the recorded Drug uptake for O=C(/C=C/c1ccc(O)cc1)c1ccc([125I])cc1 meets or exceeds 8 % ID/g.
satisfied

Please indicate if the recorded Drug uptake for Nc1ccc(/C=C/C(=O)c2ccc([125I])cc2)cc1 meets or exceeds 8 % ID/g.
not satisfied

====

Please go through the items and note down their Drug uptake.
# System: Lung
# Protocol Notes: Biodistribution in ddY mouse lung at 0.2 to 0.3 uCi, iv after 30 mins
# Assay type: ADME, organism-based
# Assay Conditions: in vivo, 0.5 h
Express the result in % ID/g but write the number alone.

Which Drug uptake value belongs to CN(C)c1ccc(/C=C/C(=O)c2ccc([125I])cc2)cc1 ?
1.84

Which Drug uptake value belongs to COc1ccc(/C=C/C(=O)c2ccc([125I])cc2)cc1 ?
0.79

Which Drug uptake value belongs to Nc1ccc(/C=C/C(=O)c2ccc([125I])cc2)cc1 ?
1.43

Which Drug uptake value belongs to CNc1ccc(/C=C/C(=O)c2ccc([125I])cc2)cc1 ?
4.01

Which Drug uptake value belongs to O=C(/C=C/c1ccc(O)cc1)c1ccc([125I])cc1 ?
1.04
